- Experiment summary: xn = mol fraction of the nth substance listed
- Measurement conditions: 303.15 K; 100 kPa; x1 = 0.6002
Returns: string. Value is rule met if measured viscosity is below 100 mPa·s, and rule not met if it is greater than or equal to it.

INSERT INTO measurements (compound, label_class) VALUES
  ('C1CCC2=[NH+]CCCN2CC1.c1nc[n-]n1 + CS(C)=O', 'rule met');

Query: Could you please tell me whether viscosity recorded for C1CCC2=[NH+]CCCN2CC1.c1nc[n-]n1 + CN(C)C=O is less than 100 mPa·s?
Response: rule met

Query: Could you please tell me whether viscosity recorded for C1CCC2=[NH+]CCCN2CC1.c1nc[n-]n1 + CCCCO is less than 100 mPa·s?
Response: rule not met

Query: Could you please tell me whether viscosity recorded for C1CCC2=[NH+]CCCN2CC1.c1nc[n-]n1 + CC(C)O is less than 100 mPa·s?
Response: rule not met

Query: Could you please tell me whether viscosity recorded for C1CCC2=[NH+]CCCN2CC1.c1nc[n-]n1 + CCO is less than 100 mPa·s?
Response: rule not met

Query: Could you please tell me whether viscosity recorded for C1CCC2=[NH+]CCCN2CC1.c1nc[n-]n1 + CO is less than 100 mPa·s?
Response: rule not met

====

- Experiment summary: xn = mol fraction of the nth substance listed
- Measurement conditions: 303.15 K; 100 kPa; x1 = 0.7993
Measured quantity: viscosity (mPa·s)
Write the answer as a number in mPa·s, unit excluded.

Please review the following examples before continuing.
INSERT INTO assay_data (compound, measured_quantity, value_observed) VALUES
  ('C1CCC2=[NH+]CCCN2CC1.c1nc[n-]n1 + CCCCO', 'viscosity', 423.5),
  ('C1CCC2=[NH+]CCCN2CC1.c1nc[n-]n1 + CS(C)=O', 'viscosity', 309.9),
  ('C1CCC2=[NH+]CCCN2CC1.c1nc[n-]n1 + CN(C)C=O', 'viscosity', 195),
  ('C1CCC2=[NH+]CCCN2CC1.c1nc[n-]n1 + CO', 'viscosity', 555.9),
  ('C1CCC2=[NH+]CCCN2CC1.c1nc[n-]n1 + CCO', 'viscosity', 472.2);

// C1CCC2=[NH+]CCCN2CC1.c1nc[n-]n1 + CC(C)O : viscosity value = 439.8

====

- Measurement conditions: 313.15 K; 100 kPa
Documented viscosity across a set of compounds
Write the answer as a number in mPa·s, unit excluded.

Please review the following examples before continuing.
INSERT INTO assay_data (smiles_structure, measured_quantity, value_observed) VALUES
  ('ClCC(Cl)Cl', 'viscosity', 0.887),
  ('CC(C)CO', 'viscosity', 2.174),
  ('C=CC(=O)OCCCC', 'viscosity', 0.6833);

With those in mind, consider the next compound.
// CCCCCCCC[P+](CC)(CC)CC.O=[N+]([O-])c1cnc[n-]1 : viscosity value = 124

====

Documented viscosity across a set of compounds
- Measurement conditions: 308.15 K; 100 kPa
Write the answer as a number in mPa·s, unit excluded.

Please review the following examples before continuing.
INSERT INTO assay_data (smiles_structure, value_observed) VALUES
  ('ClCC(Cl)Cl', 0.953),
  ('CC(C)(C)c1ccccc1', 0.97);

// C=CC(=O)OCCCC : viscosity value = 0.7306

// CCCCCCCC[P+](CC)(CC)CC.O=[N+]([O-])c1cnc[n-]1 : viscosity value = 160
